# target system: monkey GPC3-His protein (monkey)
# assay remarks: ELISA, monkey GPC3-His coated; antibody 2.67 nM
Listed next: entries and their corresponding OD450 nm.
API note: the answer field is a bare number with no unit suffix.

Example entries and their recorded answers appear below.
hAb007LH2L1 (antibody, human IgG1, V domains shown) VH: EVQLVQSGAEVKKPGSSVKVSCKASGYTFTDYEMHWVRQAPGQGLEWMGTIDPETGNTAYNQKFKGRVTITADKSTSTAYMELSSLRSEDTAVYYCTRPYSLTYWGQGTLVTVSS VL: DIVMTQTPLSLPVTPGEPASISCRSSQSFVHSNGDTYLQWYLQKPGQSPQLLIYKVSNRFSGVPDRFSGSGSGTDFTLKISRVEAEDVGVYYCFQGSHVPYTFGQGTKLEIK | 2.47
hAb005LH1L1a (antibody, human IgG1, V domains shown) VH: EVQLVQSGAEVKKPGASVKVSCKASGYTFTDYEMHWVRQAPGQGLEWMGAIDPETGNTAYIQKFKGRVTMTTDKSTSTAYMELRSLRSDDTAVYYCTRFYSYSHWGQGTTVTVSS VL: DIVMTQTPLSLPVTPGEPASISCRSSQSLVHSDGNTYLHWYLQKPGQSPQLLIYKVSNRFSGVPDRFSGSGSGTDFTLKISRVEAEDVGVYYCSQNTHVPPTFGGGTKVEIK | 0.111

Which OD450 nm reading was recorded for the binder hAb003LH1L1b (antibody, human IgG1, V domains shown) VH: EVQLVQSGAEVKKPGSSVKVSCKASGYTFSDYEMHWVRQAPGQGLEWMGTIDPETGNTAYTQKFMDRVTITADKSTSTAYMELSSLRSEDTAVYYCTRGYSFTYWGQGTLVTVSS VL: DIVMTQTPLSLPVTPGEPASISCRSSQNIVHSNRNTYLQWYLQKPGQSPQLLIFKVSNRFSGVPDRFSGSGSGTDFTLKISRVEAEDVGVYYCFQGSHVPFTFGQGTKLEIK ? 2.58
